assay-summary: Solubility of midodrine at 25° C. in monomers / compounds (saturated solution, HPLC)
Please note: TRUE applies when SOLUBILITY OF MIDODRINE is 0.4 g or greater, and FALSE applies otherwise.

                                   compound  discrete_label
0                                    OCCCCO            TRUE
1                CC(O)CO (stereo not drawn)            TRUE
2              C=CC(=O)OCC [ETHYL ACRYLATE]           FALSE
3  C=C(C)C(=O)OCCCCCCCCCCCC [DODECYL METHACRYLATE]           FALSE
4                CC(=O)OCC(COC(C)=O)OC(C)=O            TRUE
5   CCCCCCCCCCCC(=O)OCCCCCC [HEXYL LAURATE]           FALSE
6           CCCCCCC(O)CO (stereo not drawn)            TRUE
7                              C=CN1CCCC1=O            TRUE

* * *

assay-summary: Storage stability of midodrine in compounds (60° C., 20 days; discoloration and remaining midodrine by HPLC)
Assay type: physicochemical
run-parameters: 3 parts midodrine + 100 parts compound, sealed, colour observed visually
outcome-measure: STORAGE STABILITY OF MIDODRINE: DISCOLORATION TEST

In [3]: df
Out[3]:
                                   compound  reported_result
0    CCCCCCCC/C=C\CCCCCCCCO [OLEYL ALCOHOL]              BAD
1  CC(C)CCCCCCCCCCCCCCC(=O)O [ISOSTEARIC ACID]              BAD
2  CCCCCCCCC(CO)CCCCCC (stereo not drawn) [HEXYLDECANOL]        EXCELLENT
3  CC(C)CCCC(C)CCCC(C)CCCCC(C)CCCC(C)CCCC(C)C (stereo not drawn)        EXCELLENT
4            CCCCCCCCCCCCO [LAURYL ALCOHOL]              BAD
5  CCCCCCCCCCCCCC(=O)OC(C)C [ISOPROPYL MYRISTATE]        EXCELLENT

* * *

assay-summary: Storage stability of midodrine in compounds (60° C., 20 days; discoloration and remaining midodrine by HPLC)
Type: physicochemical
run-parameters: 3 parts midodrine + 100 parts compound, sealed, colour observed visually
Where a name gives a salt, the structure may show the parent alone.
outcome-measure: STORAGE STABILITY OF MIDODRINE: DISCOLORATION TEST

>>> print(df.to_string())
                                   molecule  reported_result
0  CCOC(=O)CC(O)(CC(=O)OCC)C(=O)OCC [TRIETHYL CITRATE]        EXCELLENT
1  CCCCCCC(O)CO (stereo not drawn) [OCTANEDIOL]              BAD
2  CCCCCCCCCCC(CO)CCCCCCCC (stereo not drawn) [OCTYLDODECANOL]        EXCELLENT
3                   NCCO [MONOETHANOLAMINE]              BAD
4  CC(O)CO (stereo not drawn) [PROPYLENE GLYCOL]        EXCELLENT
5  CC(C)CCCCCCCCCCCCCCCO [ISOSTEARYL ALCOHOL]        EXCELLENT

* * *

assay-summary: Storage stability of midodrine in compounds (60° C., 20 days; discoloration and remaining midodrine by HPLC)
Format: physicochemical
run-parameters: 3 parts midodrine + 100 parts compound, sealed, colour observed visually
outcome-measure: STORAGE STABILITY OF MIDODRINE: DISCOLORATION TEST

                                   compound  reported_result
0   CCCCCCCCCCCC(=O)OCCCCCC [HEXYL LAURATE]        EXCELLENT
1                CC(=O)OCC(COC(C)=O)OC(C)=O        EXCELLENT
2  CCCCCCCCCCCCCCCC(=O)OC(C)C [ISOPROPYL PALMITATE]        EXCELLENT
